# Assay Target: human TLR9 (Homo sapiens)
# Sequence (Q9NR96 26-1032): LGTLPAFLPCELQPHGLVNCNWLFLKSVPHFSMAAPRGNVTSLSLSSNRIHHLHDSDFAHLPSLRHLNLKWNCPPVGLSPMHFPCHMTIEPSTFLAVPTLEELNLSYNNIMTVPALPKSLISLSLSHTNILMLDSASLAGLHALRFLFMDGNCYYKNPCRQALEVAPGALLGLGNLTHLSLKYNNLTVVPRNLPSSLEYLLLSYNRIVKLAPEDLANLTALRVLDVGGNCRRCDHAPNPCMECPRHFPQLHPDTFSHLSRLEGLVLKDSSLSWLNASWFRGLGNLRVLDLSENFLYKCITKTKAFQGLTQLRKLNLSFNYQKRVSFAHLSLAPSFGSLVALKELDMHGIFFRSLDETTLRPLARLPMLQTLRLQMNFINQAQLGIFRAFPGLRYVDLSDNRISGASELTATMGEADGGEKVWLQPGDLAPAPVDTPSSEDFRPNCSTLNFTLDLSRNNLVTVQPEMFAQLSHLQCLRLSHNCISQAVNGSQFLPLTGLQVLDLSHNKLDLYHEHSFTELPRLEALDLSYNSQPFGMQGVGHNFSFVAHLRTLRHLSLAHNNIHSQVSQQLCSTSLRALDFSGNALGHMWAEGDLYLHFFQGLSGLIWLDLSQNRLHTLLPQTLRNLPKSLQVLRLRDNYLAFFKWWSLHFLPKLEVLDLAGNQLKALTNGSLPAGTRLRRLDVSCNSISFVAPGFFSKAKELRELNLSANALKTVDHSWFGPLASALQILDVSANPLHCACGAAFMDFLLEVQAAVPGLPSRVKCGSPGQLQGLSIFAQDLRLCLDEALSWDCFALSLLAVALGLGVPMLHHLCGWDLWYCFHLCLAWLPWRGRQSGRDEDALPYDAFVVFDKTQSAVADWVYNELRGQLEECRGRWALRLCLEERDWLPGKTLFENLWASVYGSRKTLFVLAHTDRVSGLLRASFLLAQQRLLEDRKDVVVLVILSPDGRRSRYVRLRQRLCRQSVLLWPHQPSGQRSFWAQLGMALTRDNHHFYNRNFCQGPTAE
# Protocol Description: TLR9 inhibition reporter assay (HEK-Blue cells, SEAP reporter)
# Measurement Conditions: HEK-Blue cells overexpressing human TLR9, stimulated with ODN2006 5 nM, 22 hour incubation
Quantity Name: pIC50
When answering, recall that pIC50 equals minus log10 of the concentration in mol/L, and write that number alone.

1. COCCN1C2CCC1CN(c1ccc(-c3cc4c(cc(-c5ccc(S(C)(=O)=O)cc5)n4C)c(C)n3)cc1)C2 [Example 74]	7.24
2. Cc1nc(-c2ccc(N3CCN(CCO)CC3)c(F)c2)cc2c1cc(-c1ccc(S(C)(=O)=O)cc1)n2C [Example 69]	7.11
3. Cc1nc(-c2ccc(CN3CCN(CC(C)C)CC3)cc2)cc2c1cc(-c1ccc(S(C)(=O)=O)cc1)n2C [Example 57]	7.34
4. COc1ccc(-c2cc3cnc(-c4ccc(N5CCN(C(=O)c6ccccc6)CC5)cc4)cc3n2C)cc1OC [Example 29]	6.40
5. COc1ccc(-c2cc3cnc(C4CCN(Cc5ccc(C(F)(F)F)nc5)CC4)cc3n2C)cc1OC [Example 28]	6.57

What does the data say about its pIC50? Entry: Cc1nc(-c2ccc(N3CCN(C4CCOC4)CC3)cc2)cc2c1cc(-c1ccc(S(=O)(=O)N(C)C)cc1)n2C (centres unmarked) [Example 52]
6.69

What does the data say about its pIC50? Entry: COc1ccc(-c2c(C)n(C)c3cnc(C4CCN(C5CCN(C(=O)C(C)C)CC5)CC4)cc23)cc1OC [Example 18]
6.71

What does the data say about its pIC50? Entry: Cc1nc(-c2ccc(C3(O)CC4CCC(C3)N4C(C)C)cc2F)cc2c1cc(-c1ccc(S(C)(=O)=O)cc1)n2C (centres unmarked) [Example 103]
6.53

What does the data say about its pIC50? Entry: Cc1nc(-c2ccc(N3CCN(C4CCOCC4)CC3)c(F)c2F)cc2c1cc(-c1ccc(S(C)(=O)=O)cc1)n2C [Example 83]
5.64

What does the data say about its pIC50? Entry: COc1ccc(-c2c(C)[nH]c3cnc(C4CCN(C5CCN(C(=O)OCc6ccccc6)CC5)CC4)cc23)cc1OC [Example 4]
6.61

What does the data say about its pIC50? Entry: CC(C)N1CCN(c2ccc(-c3cc4c(cn3)cc(-c3ccc(S(C)(=O)=O)cc3)n4C)cc2)CC1 [Example 54]
7.38

* * *

# Assay Target: human TLR8 (Homo sapiens)
# Protocol Description: TLR8 inhibition reporter assay (HEK-Blue cells, SEAP reporter)
# Measurement Conditions: HEK-Blue cells overexpressing human TLR8, stimulated with R848 15.9 μM, 22 hour incubation
Quantity Name: log10 IC50 (log10 of the value in µM)
The figures below represent log10 of IC50, where IC50 is stated in µM.

What does the data say about its log10 IC50? Entry: CC(C)(O)CN1CCN(Cc2ccc(-c3cc4c(cn3)cc(-c3ccc(S(C)(=O)=O)cc3)n4C3CC3)cc2)CC1
0.90

* * *

Measured IC50 by item
# Assay Target: UniProt:Q9NR97
# Sequence (Q9NR97 27-1041): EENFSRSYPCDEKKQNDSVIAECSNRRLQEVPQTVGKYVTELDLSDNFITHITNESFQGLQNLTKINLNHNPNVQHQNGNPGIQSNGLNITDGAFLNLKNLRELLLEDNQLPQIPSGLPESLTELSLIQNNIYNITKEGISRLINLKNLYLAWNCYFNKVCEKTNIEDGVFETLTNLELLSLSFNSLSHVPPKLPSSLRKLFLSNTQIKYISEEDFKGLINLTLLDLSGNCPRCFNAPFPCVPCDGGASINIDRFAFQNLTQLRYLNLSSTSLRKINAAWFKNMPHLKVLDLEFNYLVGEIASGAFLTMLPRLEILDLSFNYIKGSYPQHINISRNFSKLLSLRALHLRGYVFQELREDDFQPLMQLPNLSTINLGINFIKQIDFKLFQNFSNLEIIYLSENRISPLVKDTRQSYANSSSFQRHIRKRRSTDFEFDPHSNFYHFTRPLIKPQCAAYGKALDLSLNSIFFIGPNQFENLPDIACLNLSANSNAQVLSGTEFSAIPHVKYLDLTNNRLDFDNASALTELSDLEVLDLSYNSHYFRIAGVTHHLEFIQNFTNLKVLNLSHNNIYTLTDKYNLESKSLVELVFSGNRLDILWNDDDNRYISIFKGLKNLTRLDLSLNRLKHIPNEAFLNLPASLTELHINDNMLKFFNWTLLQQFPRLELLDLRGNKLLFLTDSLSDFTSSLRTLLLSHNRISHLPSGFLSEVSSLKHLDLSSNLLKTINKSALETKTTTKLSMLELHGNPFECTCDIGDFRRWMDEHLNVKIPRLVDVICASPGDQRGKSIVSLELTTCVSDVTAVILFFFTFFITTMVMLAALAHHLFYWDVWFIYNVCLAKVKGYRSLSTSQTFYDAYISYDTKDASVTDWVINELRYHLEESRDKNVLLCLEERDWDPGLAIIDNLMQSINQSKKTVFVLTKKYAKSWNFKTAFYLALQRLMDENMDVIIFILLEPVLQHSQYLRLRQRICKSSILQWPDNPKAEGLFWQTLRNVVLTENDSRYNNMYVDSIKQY
# Protocol Description: TLR8 inhibition reporter assay (HEK-Blue cells, SEAP reporter)
# Measurement Conditions: HEK-Blue cells overexpressing human TLR8, stimulated with R848 15.9 μM, 22 hour incubation
# Source text: TLR7/8/9 Inhibition Reporter Assays HEK-Blue™-cells (Invivogen) overexpressing human TLR7, TLR8 or TLR9 receptors were used for screening inhibitors of these receptors using an inducible SEAP (secreted embryonic alkaline phosphatase) reporter gene under the control of the IFN-β minimal promoter fused to five NF-κB and AP-1-binding sites. […]
Reply numerically in µM, unit not repeated.

1) Cc1nc(-c2ccc(C3(O)CCN(C4CC4)CC3)cc2)cc2c1cc(-c1ccc(S(C)(=O)=O)cc1)n2C	4
2) CC(C)N1CCN(c2ccc(-c3cc4c(cc(-c5ccc(S(C)(=O)=O)cc5)n4C)c(C(C)(C)O)n3)cc2)CC1	8.1
3) CCOC(=O)N1CCC(N2CCC(c3cc4c(cn3)cc(-c3ccc(OC)c(OC)c3)n4C)CC2)CC1	5.2

Consider the additional compound presented here.
What does the data say about its IC50? Entry: Cc1nc(-c2ccc([C@]3(O)CCN(C(C)C)C(C)(C)C3)c(F)c2)cc2c1cc(-c1ccc(S(C)(=O)=O)cc1)n2C
0.7

* * *

# Assay Target: UniProt Q9NYK1
# Sequence (Q9NYK1 27-1049): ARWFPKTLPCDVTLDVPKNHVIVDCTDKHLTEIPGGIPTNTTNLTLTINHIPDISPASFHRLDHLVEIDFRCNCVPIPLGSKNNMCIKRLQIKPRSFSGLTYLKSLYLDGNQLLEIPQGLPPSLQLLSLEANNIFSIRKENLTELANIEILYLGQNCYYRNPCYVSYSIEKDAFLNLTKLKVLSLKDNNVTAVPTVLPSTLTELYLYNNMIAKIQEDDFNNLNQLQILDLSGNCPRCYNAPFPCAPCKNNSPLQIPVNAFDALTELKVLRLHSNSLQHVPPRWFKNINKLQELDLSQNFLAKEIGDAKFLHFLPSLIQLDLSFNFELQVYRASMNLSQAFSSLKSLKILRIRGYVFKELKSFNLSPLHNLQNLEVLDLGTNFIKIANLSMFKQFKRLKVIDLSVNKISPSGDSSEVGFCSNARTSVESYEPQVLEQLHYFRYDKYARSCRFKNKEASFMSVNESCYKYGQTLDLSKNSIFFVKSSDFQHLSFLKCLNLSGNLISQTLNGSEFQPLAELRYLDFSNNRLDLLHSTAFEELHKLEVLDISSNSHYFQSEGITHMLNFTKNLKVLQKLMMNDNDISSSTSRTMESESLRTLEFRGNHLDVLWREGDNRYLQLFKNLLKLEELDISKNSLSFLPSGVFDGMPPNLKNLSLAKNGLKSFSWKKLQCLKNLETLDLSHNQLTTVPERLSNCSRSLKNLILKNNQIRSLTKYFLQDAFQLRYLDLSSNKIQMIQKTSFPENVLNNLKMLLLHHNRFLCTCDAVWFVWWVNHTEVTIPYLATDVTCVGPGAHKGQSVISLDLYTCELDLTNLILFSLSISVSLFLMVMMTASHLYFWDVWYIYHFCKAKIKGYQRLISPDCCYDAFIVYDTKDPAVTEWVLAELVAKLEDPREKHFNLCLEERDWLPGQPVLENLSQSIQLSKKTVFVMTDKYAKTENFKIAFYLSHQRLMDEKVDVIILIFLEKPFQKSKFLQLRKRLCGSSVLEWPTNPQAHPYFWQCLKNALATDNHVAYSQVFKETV
# Protocol Description: TLR7 inhibition reporter assay (HEK-Blue cells, SEAP reporter)
# Measurement Conditions: HEK-Blue cells overexpressing human TLR7, stimulated with gardiquimod 7.5 μM, 22 hour incubation
Mark 1 only for IC50 values smaller than 3 µM; exact matches and larger values are -1.

1) COc1ccc(-c2cc3cnc(-c4ccc(N5CCN(C(C)C)CC5)cc4)cc3n2C)cc1OC	-1
2) COCCN1C2CCC1CN(c1cc(F)c(-c3cc4c(cc(-c5ccc(S(C)(=O)=O)cc5)n4C)c(C)n3)cc1F)C2	1
3) Cc1nc(-c2ccc(N3CCN(C4CCOC4)CC3)c(F)c2)cc2c1cc(-c1ccc(S(C)(=O)=O)cc1)n2C (stereo not shown)	-1
4) Cc1nc(-c2ccc(N3CCN(CC(C)C)CC3)cc2)cc2c1cc(-c1ccc(S(C)(=O)=O)cc1)n2C	1
5) Cc1nc(-c2ccc(C3(O)CCN(CC(C)C)CC3)c(F)c2)cc2c1cc(-c1ccc(S(C)(=O)=O)cc1)n2C	-1

Decide: IC50 of COc1ccc(-c2c(C)[nH]c3cnc(C4CCN(c5cc(C)nc(C)c5)CC4)cc23)cc1OC strictly below 3 µM?
-1

Decide: IC50 of CCOC(=O)N1CCC(N2CCC(c3cc4c(cn3)cc(-c3ccc(OC)c(OC)c3)n4C)CC2)CC1 strictly below 3 µM?
-1

Origin of measurements: patent US12590091B2
